Cited source for all entries: ChEMBL document CHEMBL2029334

assay: Tmax in rat plasma at 116 mg/kg, ip; assay type: ADME, organism-based; set-up: dose 116 mg/kg, route intraperitoneal
outcomeMeasure: Tmax (min)

compound="CC(=O)N1CCN(C(=O)C[S+]([O-])C2c3ccccc3-c3ccccc32)CC1 (racemic)" resultunits=min numericreadout=48

###

assay: Cmax in rat brain at 116 mg/kg, ip; type: ADME, organism-based; set-up: dose 116 mg/kg, route intraperitoneal
outcomeMeasure: Cmax (ng/g)

compound="CC(=O)N1CCN(C(=O)C[S+]([O-])C2c3ccccc3-c3ccccc32)CC1 (racemic)" numericreadout=416

###

test system: Plasma; experiment: Plasma concentration in human at efficacious dose; type: ADME, cell-free
outcomeMeasure: concentration

molecule="NC(=O)C[S+]([O-])C(c1ccccc1)c1ccccc1 (racemic) [MODAFINIL]" assayedsystem=Plasma result="> 30 µM"
